Attribute: IC50
target.or.system: PfNMT (Plasmodium falciparum, UniProt Q9U419)
Sequence (Q9U419 1-410): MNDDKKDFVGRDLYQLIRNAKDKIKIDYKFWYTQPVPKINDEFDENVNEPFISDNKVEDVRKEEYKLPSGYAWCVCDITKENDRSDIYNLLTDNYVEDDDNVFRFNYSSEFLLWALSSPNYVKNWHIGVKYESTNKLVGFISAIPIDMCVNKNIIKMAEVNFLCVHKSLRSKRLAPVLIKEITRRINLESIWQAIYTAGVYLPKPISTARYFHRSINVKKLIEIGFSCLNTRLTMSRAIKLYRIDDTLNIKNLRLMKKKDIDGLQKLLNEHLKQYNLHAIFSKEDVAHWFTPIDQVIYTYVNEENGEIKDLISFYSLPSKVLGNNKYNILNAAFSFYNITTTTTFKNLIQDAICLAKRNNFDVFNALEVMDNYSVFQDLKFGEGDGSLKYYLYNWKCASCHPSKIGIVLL

Cc1c(C(=O)NC2CCCCC2)oc2cccc(OC3CCNCC3)c12 | > 100 µM

Entry Cc1c(C(=O)NC(C)C)oc2cccc(OC3CCNCC3)c12 , PfNMT (Plasmodium falciparum, UniProt Q9U419) data, IC50 value: > 200 µM
